Experiment: Plasma pharmacokinetics of CKLP1 and levcromakalim after topical dosing in hound dogs
Type: in vivo, hound dog
Settings: hound, dog, plasma, topical or ocular, 10 mM, time of maximum concentration (Tmax) of levcromakalim, after topical 10 mM CKLP1
measure: Tmax

Any idea what its Tmax is? The molecule is CC1(C)Oc2ccc(C#N)cc2[C@@H](N2CCCC2=O)[C@@H]1O [Levcromakalim, levcromakalim, reference compound]
~2 h

---

Assay: Plasma pharmacokinetics of CKLP1 and levcromakalim after topical dosing in hound dogs
Type: in vivo, hound dog
Details: hound, dog, plasma, topical or ocular, 10 mM CKLP1, 50 µL in each of both eyes, levcromakalim after topical 10 mM CKLP1 once daily; Day 8; read-out: Tmax (converted)
measure: Tmax (h)
Express it in h; write the number only.

Any idea what its Tmax is? The compound is CC1(C)Oc2ccc(C#N)cc2[C@@H](N2CCCC2=O)[C@@H]1O [Levcromakalim, levcromakalim, reference compound]
2
